- tested-target: T1, recombinant LILRA3 (human, UniProt Q8N6C8 24-439)
- T1 construct: whole entry named; also called LILRA3 ECD; LILA3
- T1 sequence (Q8N6C8 24-439 limits assumed): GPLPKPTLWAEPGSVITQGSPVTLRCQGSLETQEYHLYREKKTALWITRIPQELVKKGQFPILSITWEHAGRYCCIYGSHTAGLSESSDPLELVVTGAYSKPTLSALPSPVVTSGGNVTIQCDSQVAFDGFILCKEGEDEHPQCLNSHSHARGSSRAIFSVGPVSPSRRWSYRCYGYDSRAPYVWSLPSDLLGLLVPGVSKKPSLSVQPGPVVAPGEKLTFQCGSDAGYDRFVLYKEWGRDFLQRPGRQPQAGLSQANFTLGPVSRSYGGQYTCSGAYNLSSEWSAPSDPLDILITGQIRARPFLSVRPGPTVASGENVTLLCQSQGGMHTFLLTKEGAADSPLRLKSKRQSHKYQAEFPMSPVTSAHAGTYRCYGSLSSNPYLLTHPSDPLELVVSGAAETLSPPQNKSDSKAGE
- measurement-description: BLI, IgG on AHC sensor, ECD in solution
recorded-metric: Kd (nM)

binder | recorded-metric | units-symbol | val
A-010 (antibody, V domains shown) VH: QVQLVQSGAEVKKPGSSVKVSCKASGGTFQSQAFAWVRQAPGQGLEWMGSIIPGFSTANYAQKFQGRVTITADESTSTAYMELSSLRSEDTAVYYCAKDLGTYSSGWPYYYGMDVWGQGTTVTVSS VL: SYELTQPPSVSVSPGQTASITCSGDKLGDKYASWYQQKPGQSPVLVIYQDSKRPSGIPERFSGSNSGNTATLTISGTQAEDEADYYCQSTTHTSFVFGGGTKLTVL | Kd | nM | 217
Ref062 [NGM707, cross-specific] (antibody, from another filing, V domains shown) VH: QVQLVQSGAEVKKPGASVKVSCKASGYTFTDYYINWVRQAPGQGLEWMGNVNPNDGGTTYNQKFKGRVTMTTDTSTSTAYMELRSLRSDDTAVYYCARREIYFYGTIYYYAMDYWGQGTLVTVSS VL: DIQLTQSPSFLSASVGDRVTITCRASESVDYYGNSFMYWYQQKPGKAPKLLIYFASNLESGVPSRFSGSGSGTEFTLTISSLQPEDFATYYCQQNNEDPWTFGGGTKVEIKR | Kd | nM | 1.4
A-041 (antibody, V domains shown, tested as IgG) VH: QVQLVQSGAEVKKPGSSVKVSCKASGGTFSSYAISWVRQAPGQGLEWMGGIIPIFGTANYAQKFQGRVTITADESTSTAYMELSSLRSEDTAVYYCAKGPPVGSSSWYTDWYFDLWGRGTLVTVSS VL: SYELTQPPSVSVSPGQTASITCSGDKLGDKYASWYQQKPGQSPVLVIYQDSKRPSGIPERFSGSNSGNTATLTISGTQAEDEADYYCSSYGSGLTVVFGGGTKLTVL | Kd | nM | 465
